Molecular target: SfurOBP11 (Sogatella furcifera, UniProt V5T6E3)
Sequence (V5T6E3 entry or part of it): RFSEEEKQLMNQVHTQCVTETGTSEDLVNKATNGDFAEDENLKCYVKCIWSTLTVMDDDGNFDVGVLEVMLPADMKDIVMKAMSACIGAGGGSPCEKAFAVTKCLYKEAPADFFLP
Experiment: biochemical
Assay type: binding
Details: ligand concentration 6, replicate 2
Could you please report measured Fluorescence intensity, fluorescence competitive binding assay, OBP11 for the items listed next?
Reply with just the number.

Tell me its Fluorescence intensity, fluorescence competitive binding assay, OBP11 given "C[C@@H]1CC[C@H]2C(C)(C)[C@H]3C[C@@]12CC[C@@]3(C)O" as the entry.
34452

Query Fluorescence intensity, fluorescence competitive binding assay, OBP11 for "CCCCCC(C)=O"
24187

Tell me Fluorescence intensity, fluorescence competitive binding assay, OBP11 reported for "OC1CCCCC1"
24699

For the compound CCCCCCCCCCCCCCCC(=O)OC [MH(methyl hexadecanoate)] , give its measured Fluorescence intensity, fluorescence competitive binding assay, OBP11 value.
36906

Look up and state reported Fluorescence intensity, fluorescence competitive binding assay, OBP11 for C=CC(C)(O)CCC=C(C)C (stereo not drawn)
34102

Given the compound "COC(=O)c1ccccc1" , write its reported Fluorescence intensity, fluorescence competitive binding assay, OBP11.
26496

Complete the entry with Fluorescence intensity, fluorescence competitive binding assay, OBP11 for C=C(C)C1CC=C(C)CC1 (single isomer, unassigned; (+)) [(+)-limonene]
20072

Recall and state the measured Fluorescence intensity, fluorescence competitive binding assay, OBP11 for "CCCCCCCCCCCCO" .
22901

Note Fluorescence intensity, fluorescence competitive binding assay, OBP11 for the compound shown: "Cc1ccc(C(C)C)cc1"
29596

* * *

Molecular target: SfurOBP2 (Sogatella furcifera, UniProt V5T759)
Sequence (V5T759 entry or part of it): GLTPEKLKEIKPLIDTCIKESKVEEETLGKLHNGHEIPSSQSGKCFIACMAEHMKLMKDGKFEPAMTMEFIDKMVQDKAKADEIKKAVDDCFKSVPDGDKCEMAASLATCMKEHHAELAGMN
Experiment: biochemical
Format: binding
Details: ligand concentration 12 (unit not given), replicate column 3 of 3
Please go through the items and note down their Fluorescence competitive binding assay, OBP2 (raw fluorescence reading).
# answer = number (no unit)

Determine from records and report Fluorescence competitive binding assay, OBP2 (raw fluorescence reading) for "OC1CCCCC1"
15003

Provide measured Fluorescence competitive binding assay, OBP2 (raw fluorescence reading) value, entry: CC(C)COC(=O)CCCCC(=O)OCC(C)C [DA(diisobutyl adipate)]
15214

Determine its reported Fluorescence competitive binding assay, OBP2 (raw fluorescence reading): C=CC(C)(O)CCC=C(C)C (stereo not shown)
16298

Give recorded Fluorescence competitive binding assay, OBP2 (raw fluorescence reading). CCCCCCCCCCCCCCCC(=O)OC [MH(methyl hexadecanoate)]
78968

Identify Fluorescence competitive binding assay, OBP2 (raw fluorescence reading) associated with the compound "CCCCCCCCCCCCO"
14391

Find the measured Fluorescence competitive binding assay, OBP2 (raw fluorescence reading) of "CCCCCCCC=O" and report it.
18513

Write down Fluorescence competitive binding assay, OBP2 (raw fluorescence reading) measured for item "Cc1cc(C(C)(C)C)c(O)c(C(C)(C)C)c1"
14083

Tell me Fluorescence competitive binding assay, OBP2 (raw fluorescence reading) reported for "CC(=O)c1ccccc1"
16824

Provide only the value of recorded Fluorescence competitive binding assay, OBP2 (raw fluorescence reading) for "CCCCCCCC"
12885

Look up and state reported Fluorescence competitive binding assay, OBP2 (raw fluorescence reading) for "CCCCCCCCC=O"
19313

In one line, give reported Fluorescence competitive binding assay, OBP2 (raw fluorescence reading) of the entry "C/C(=C\CO)CCC[C@H](C)CCC[C@H](C)CCCC(C)C" .
19157

Check the records and state Fluorescence competitive binding assay, OBP2 (raw fluorescence reading) for CCC/C=C/CO [(E)-2-hexenol]
14192

Return value of Fluorescence competitive binding assay, OBP2 (raw fluorescence reading) for input "c1ccc2ccccc2c1" , no commentary.
19454

State, in one line, measured Fluorescence competitive binding assay, OBP2 (raw fluorescence reading) of "CC(=O)/C=C/C1=C(C)CCCC1(C)C"
15363

Give the reported Fluorescence competitive binding assay, OBP2 (raw fluorescence reading) for this compound. "C=C1CC/C=C(\C)CC[C@@H]2[C@@H]1CC2(C)C"
16204

Could you please provide reported Fluorescence competitive binding assay, OBP2 (raw fluorescence reading) for "Cc1ccc(C(C)C)cc1" ? Thanks!
14693

Assign Fluorescence competitive binding assay, OBP2 (raw fluorescence reading) to the following record: "CCCCCC(C)=O"
15583

Determine from records and report Fluorescence competitive binding assay, OBP2 (raw fluorescence reading) for "CCCCCCC=CCO"
18397

Write down Fluorescence competitive binding assay, OBP2 (raw fluorescence reading) measured for item "CCCCCCCCCCOCCCCCCCCCC"
42564

Complete the entry with Fluorescence competitive binding assay, OBP2 (raw fluorescence reading) for "CCCCCCCCCCCCCCCCCC"
21373

Tell us which Fluorescence competitive binding assay, OBP2 (raw fluorescence reading) value is on record for "COC(=O)c1ccccc1"
15331

Write down Fluorescence competitive binding assay, OBP2 (raw fluorescence reading) measured for item "O=C(c1ccccc1)c1ccccc1"
14417

Please indicate Fluorescence competitive binding assay, OBP2 (raw fluorescence reading) recorded for C=CC(C)(O)CCC=C(C)CCC=C(C)C (mixture of isomers)
12945

Identify measured Fluorescence competitive binding assay, OBP2 (raw fluorescence reading) corresponding to "CCCCCCCCCCC"
13211

Give the measured Fluorescence competitive binding assay, OBP2 (raw fluorescence reading) for "CCCCCCCCCCCCCC"
20719
